These measurements were taken from DBAASP.

# Tested on: Pseudomonas aeruginosa ATCC 27853
# ASSAY_COMMENT: ≥ marks a high value that may be exact or a test limit, other limits are often not marked, values filed in µg/mL are converted to µM
TEST_READOUT: MIC (µM)
Just the number in µM, nothing appended.

What value of MIC has been recorded for this entry: CC[C@H](C)[C@H](NC(=O)[C@H](CCCCN)NC(=O)[C@H](CCCCN)NC(=O)[C@H](CC(C)C)NC(=O)[C@H](CCCN=C(N)N)NC(=O)[C@H](CCCCN)NC(=O)[C@H](CCCN=C(N)N)NC(=O)[C@H](Cc1ccccc1)NC(=O)[C@H](CCCCN)NC(=O)[C@H](CCCCN)NC(=O)[C@H](CCCN=C(N)N)NC(=O)[C@H](CC(C)C)NC(=O)[C@H](CCCN=C(N)N)NC(=O)[C@H](CCCN=C(N)N)NC(=O)[C@H](Cc1ccccc1)NC(=O)[C@@H](N)CCCN=C(N)N)C(N)=O [RFRRLRKKFRKRLKKI]
256
